- Tested target: hTRPA1 (Homo sapiens, UniProt O75762, K186N)
- Construct: expressed in transfected cells; host or cells: HEK293/TREx (Invitrogen), induced with tetracycline
- Sequence (O75762 whole entry K186N): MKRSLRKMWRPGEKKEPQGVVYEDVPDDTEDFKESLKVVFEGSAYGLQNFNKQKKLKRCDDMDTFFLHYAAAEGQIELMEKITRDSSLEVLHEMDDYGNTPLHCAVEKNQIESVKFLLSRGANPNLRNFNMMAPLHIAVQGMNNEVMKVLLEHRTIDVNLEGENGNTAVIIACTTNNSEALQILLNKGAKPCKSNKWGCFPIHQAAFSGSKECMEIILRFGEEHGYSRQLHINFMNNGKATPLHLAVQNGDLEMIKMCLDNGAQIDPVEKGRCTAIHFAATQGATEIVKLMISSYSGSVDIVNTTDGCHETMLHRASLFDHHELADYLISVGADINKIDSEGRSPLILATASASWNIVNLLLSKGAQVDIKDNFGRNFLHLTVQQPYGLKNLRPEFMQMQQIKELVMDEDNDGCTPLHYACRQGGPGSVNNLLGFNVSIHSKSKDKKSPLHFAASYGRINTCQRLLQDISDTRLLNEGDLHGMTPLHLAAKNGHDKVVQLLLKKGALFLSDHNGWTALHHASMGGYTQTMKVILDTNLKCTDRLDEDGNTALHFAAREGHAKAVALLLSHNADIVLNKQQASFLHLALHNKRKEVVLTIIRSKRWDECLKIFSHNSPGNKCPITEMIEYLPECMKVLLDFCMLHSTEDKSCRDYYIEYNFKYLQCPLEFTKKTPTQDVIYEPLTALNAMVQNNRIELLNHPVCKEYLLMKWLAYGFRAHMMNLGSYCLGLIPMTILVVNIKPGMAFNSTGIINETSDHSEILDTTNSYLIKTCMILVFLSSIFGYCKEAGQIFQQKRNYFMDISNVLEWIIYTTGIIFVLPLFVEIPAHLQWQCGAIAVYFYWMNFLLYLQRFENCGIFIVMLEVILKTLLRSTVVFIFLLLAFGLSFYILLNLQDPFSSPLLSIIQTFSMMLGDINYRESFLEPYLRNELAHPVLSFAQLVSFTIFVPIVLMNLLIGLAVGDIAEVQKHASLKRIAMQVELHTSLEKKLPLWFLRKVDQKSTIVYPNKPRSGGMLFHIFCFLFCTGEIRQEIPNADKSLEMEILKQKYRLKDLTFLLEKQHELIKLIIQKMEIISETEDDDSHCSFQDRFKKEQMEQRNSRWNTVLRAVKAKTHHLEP
- Procedure summary: High throughput Ca2+ fluorescence (Fluo4) assay, AITC stimulation
- Type: cell-based
- Measurement setup: Table 1; read-out: hTRPA1 Fluo4 IC50
Reported property: IC50

Looking up CCCC1=C(C(=O)OCC)C(c2ccccc2Cl)NC(=O)N1 (stereo not shown) , I see its IC50 listed as ≤ 5 µM

Looking up CC1=C(C(=O)OC(C)C)C(c2c(F)cccc2Cl)NC(=O)N1 (stereo not shown) , I see its IC50 listed as > 10 µM

Looking up CCOC(=O)C1=C(C)NC(=S)NC1c1cccc(OC2CCCC2)c1 (stereo not shown) , I see its IC50 listed as ≤ 5 µM
